Test system: MOLM-13 (MLL-AF9) cells
Assay: Cell proliferation (alamarBlue) MOLM-13
Type: cell-based
Settings: Homo sapiens, MOLM-13, read-out: IC50 proliferation, MOLM-13 (MLL-AF9), D7
Recorded IC50 by entry
observed-property: IC50

smi	target	reported-measurement
Cc1c(CN2CCC3(CC2)CN(c2ncnc4sc(CC(F)(F)F)cc24)C3)ccc2c1cc(C#N)n2CC(N)=O	MOLM-13 (MLL-AF9) cells	0.28 µM
Cc1c(-c2ccc(-c3ccccc3F)cc2)nc2ccc(F)cc2c1C(=O)O	MOLM-13 (MLL-AF9) cells	0.22 µM

----------
Test system: MOLM-13 (MLL-AF9) cells
Assay: Cell proliferation (alamarBlue) MOLM-13
Assay type: cell-based
Conditions: Homo sapiens, MOLM-13, MOLM-13 (MLL-AF9), D7; read-out: IC50 proliferation

compound	unit-of-measurement	IC50
Cc1sc2c(c1C)C(c1ccc(Cl)cc1)=N[C@@H](CC(=O)Nc1ccc(O)cc1)c1nnc(C)n1-2	nM	110
COc1cc(F)ccc1-c1cc(Nc2cc(CS(C)(=N)=O)ccn2)ncc1F (stereo not drawn)	nM	70
CC(C)N(C[C@H]1O[C@@H](n2cnc3c(N)ncnc32)[C@H](O)[C@@H]1O)[C@H]1C[C@@H](CCc2nc3cc(C(C)(C)C)ccc3[nH]2)C1	nM	6570
